# system_tested: Amine oxidase [flavin-containing] B (Homo sapiens, UniProt P27338)
# protocol_text: biochemical
# Description: Inhibition of human recombinant microsomal MAOB expressed in baculovirus infected BTI-TN-5B1- 4 cells using p-tyramine as substrate assessed as decrease in H2O2 production after 15 mins by amplex red-based fluorescence assay
Listed next: entries and their corresponding pIC50.
Units for pIC50: none; it is -log10 of a concentration expressed in mol/L.

Sample answers from the record:
chem_smiles=COc1ccc2oc(=O)c(C(=O)Nc3ccc(C)cc3)cc2c1 endpoint_value=7.71
chem_smiles=Cc1ccc2occ(C(=O)Nc3ccc(Cl)cc3)c(=O)c2c1 endpoint_value=7.34

Consider now this further compound.
The measured pIC50 associated with "Cc1ccc2oc(=O)c(C(=O)Nc3ccc(Cl)cc3)cc2c1" reads 7.96

###

Measured log10 of IC50 values are reported for all entries that follow.
# system_tested: Amine oxidase [flavin-containing] B (Homo sapiens)
# Sequence (P27338 whole entry): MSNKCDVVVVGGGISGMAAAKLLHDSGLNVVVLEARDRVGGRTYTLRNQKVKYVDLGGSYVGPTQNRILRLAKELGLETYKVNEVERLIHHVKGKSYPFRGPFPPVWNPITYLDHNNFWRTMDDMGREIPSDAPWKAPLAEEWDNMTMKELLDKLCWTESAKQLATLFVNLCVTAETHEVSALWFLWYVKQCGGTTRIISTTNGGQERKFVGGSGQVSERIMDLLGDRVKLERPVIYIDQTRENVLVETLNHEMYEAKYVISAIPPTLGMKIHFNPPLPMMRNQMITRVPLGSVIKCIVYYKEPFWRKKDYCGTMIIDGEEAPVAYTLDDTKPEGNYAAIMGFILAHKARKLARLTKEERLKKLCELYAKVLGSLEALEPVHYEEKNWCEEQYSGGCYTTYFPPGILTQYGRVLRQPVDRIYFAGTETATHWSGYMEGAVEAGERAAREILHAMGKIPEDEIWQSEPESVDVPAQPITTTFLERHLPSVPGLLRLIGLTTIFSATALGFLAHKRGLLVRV
# protocol_text: biochemical
# Format: cell-based
// units: nM (pre-log); metric: IC50; scale: log10

Examples with answers:
chem_smiles=COc1ccc2occ(C(=O)Nc3cccc(O)c3)c(=O)c2c1 measured_property="log10 of IC50" endpoint_value=2.05
chem_smiles=COc1ccc2oc(=O)c(C(=O)Nc3cccc(O)c3)cc2c1 measured_property="log10 of IC50" endpoint_value=2.36
chem_smiles=COc1ccc2oc(=O)c(C(=O)Nc3cccc(Cl)c3)cc2c1 measured_property="log10 of IC50" endpoint_value=0.96
chem_smiles=COc1ccc2occ(C(=O)Nc3ccc(O)cc3)c(=O)c2c1 measured_property="log10 of IC50" endpoint_value=2.83
chem_smiles=Cc1ccc2occ(C(=O)Nc3cccc(O)c3)c(=O)c2c1 measured_property="log10 of IC50" endpoint_value=1.89
chem_smiles=Cc1ccc2occ(C(=O)Nc3ccc(O)cc3)c(=O)c2c1 measured_property="log10 of IC50" endpoint_value=2.71

Lab note: next compound to report on.
So, "Cc1cccc(NC(=O)c2cc3cc(C)ccc3oc2=O)c1" ? Its log10 of IC50 was 0.88
